B1: Osa-1-4 twister ribozyme (parent)
chain: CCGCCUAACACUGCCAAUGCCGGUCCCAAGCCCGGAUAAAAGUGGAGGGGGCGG

variants of: B1; experiment: self-cleavage, relative activity (ratio to wild type); higher = more cleavage; co-transcriptional
Listed variants paired with reported self-cleavage
Measure Name: self-cleavage

In [3]: df
Out[3]:
    mutant_name  readout_value
 0    A38C C15U           0.57
 1     A8G G34C           0.13
 2    C31A G13U           0.02
 3    C20G G49A           0.05
 4    A17U C33G           0.06
 5    C15A G22C           0.03
 6    A46U C11G           0.05
 7    A10G G19C           0.09
 8     C9U G45C           0.03
 9    G50C G54A           0.15
10    A16C C26A           0.03
